# assayedSystem: T1, 4H3718-AA
# T1 chain: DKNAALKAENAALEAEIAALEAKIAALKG
# experimentNotes: two-hybrid library CCmax;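 further: natural log of median RNA to DNA barcode read ratio; higher means stronger binding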
# conditionParameters: mean of both orientations
Labelling: interaction score reported below -1 becomes condition met; at or above becomes condition not met.

Task item: Quick check: does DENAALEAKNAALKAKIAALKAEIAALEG [4H1513-AA] have interaction score under -1?
Reply: condition not met

Task item: What about this binder? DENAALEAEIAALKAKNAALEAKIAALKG [4H1142-AA]
Reply: condition met

Task item: What about this binder? DKNAALEAKIAALKAENAALEAKIAALEG [4H3413-AA]
Reply: condition met

Task item: What about this binder? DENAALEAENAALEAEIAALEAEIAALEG [4H1153-AA]
Reply: condition not met

Task item: What about this binder? DKIAALKAEIAALKAENAALEAKNAALKG [4H2648-AA]
Reply: condition met

Task item: What about this binder? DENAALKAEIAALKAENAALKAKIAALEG [4H1629-AA]
Reply: condition met

Attribution: paper PMC10397247
